target: Bromodomain-containing protein 4 (Homo sapiens); experiment: Displacement of FITC-labeled MS417 from BRD4 bromodomain 1 (unknown origin) after 1 hr by fluorescence anisotropy
readout_label: IC50

Determine its reported IC50: CC1=C(Nc2ccc(C(=O)Nc3ccccc3C)cc2Cl)CCC1=O
< 1000 nM

* * *

target: Bromodomain-containing protein 4 (Homo sapiens, UniProt O60885); experiment: Binding affinity to His-tagged BRD4 bromodomain1 (unknown origin) incubated for 1 hr in presence of Europium Cryptate-labeled streptavidin by TR-FRET assay
Recorded pIC50 by entry
A value of pIC50 is the negative decimal logarithm of a concentration given in moles per litre.

Here is how some molecules turned out for pIC50.
CCS(=O)(=O)c1ccc2c(c1)-c1cn(C)c(=O)cc1OCCCCc1cc(F)ccc1O2    8.70
Cc1[nH]c(-c2ccccc2NC2C3CC4CC(C3)CC2C4)cc1C(N)=O (stereo not drawn)    7.11

Query molecule follows.
Determine its reported pIC50: Cn1cc2c3c(c[nH]c3c1=O)CN(c1ncc(F)cc1F)c1ccc(CS(C)(=O)=O)cc1-2
9.15

* * *

target: Bromodomain-containing protein 4 (Homo sapiens, UniProt O60885); assay: Displacement of biotinylated tetra-acetylated histone H4 from his-tagged BRD4 bromodomain1 (unknown origin) expressed in Escherichia coli incubated for 2 hrs by HTRF assay
pIC50: −log10 of the molar value.
readout_label: pIC50

Cc1noc(C)c1-c1cnc2c(c1)nc(NC1CCOCC1)n2CC1CCCC1    > 6.52

Query molecule follows.
# assay system Bromodomain-containing protein 4 (Homo sapiens, UniProt O60885): give pIC50 of Cc1noc(C)c1-c1cnc2c(-c3ccc(N)nc3)cn(CC3CCC(F)(F)CC3)c2c1
> 6.00

* * *

assay: Cytotoxicity against human KMS-12-BM cells after 3 days by Cell Titer-Glo luminescent assay; assay type: functional, cell-based; settings: 72 h
pEC50: −log10 of the molar value.
readout_label: pEC50

Determine its reported pEC50: Cc1nnc2ccc3c(cc(-c4cnc[nH]4)n3Cc3cccc(Cl)c3)n12
> 6.00

* * *

biological target: Bromodomain-containing protein 4 (Homo sapiens, UniProt O60885); test: Displacement of biotinylated tetra-acetylated histone H4 from his-tagged BRD4 bromodomain1 (44 to 477 residues) (unknown origin) incubated for 35 mins by TR-FRET assay
readout_label: IC50 (nM)
Reply numerically in nM, unit not repeated.

Determine its reported IC50: Cc1cn(C)c2c1C(=O)N(c1cc(Cl)c(=O)n(C)c1)[C@@H]2c1ccc(Cl)cc1
85

* * *

biological target: Bromodomain-containing protein 4 (Homo sapiens, UniProt O60885); assay: Displacement of biotinylated tetra-acetylated histone H4 from His/Flag-tagged BRD4 bromodomain1 (42 to 168 residues) (unknown origin) incubated for 20 mins by Alphascreen assay
readout_label: IC50

Determine its reported IC50: COC[C@@H]1C[C@]12N=C(c1ccc(Cl)cc1)c1c(sc(C)c1C)-n1c(C)nnc12
< 500 nM

* * *

Recorded IC50 by entry
biological target: Bromodomain-containing protein 4 (Homo sapiens, UniProt O60885); experiment: Binding affinity to His-tagged BRD4 bromodomain1 (unknown origin) (57 to 168 residues) incubated for 1 hr in presence of Europium Cryptate-labeled streptavidin by TR-FRET assay
Reply numerically in nM, unit not repeated.

Determine its reported IC50: Cn1cc2c3c(c[nH]c3c1=O)CN(c1ccccn1)c1ccc(CS(C)(=O)=O)cc1-2
1

Determine its reported IC50: Cc1[nH]c(-c2cc(S(C)(=O)=O)ccc2Oc2ccc(F)cc2F)c2c1C(=O)NCC2
35

The origin of these recorded values is ChEMBL document CHEMBL3785033.
